Tested on: rumen fermentation (strained rumen fluid)
Assay: Rumen in vitro model
Parameters: species or system steer
Conditions: 50.00 ppm; 24 h
OBSERVABLE: IBU (isobutyrate)

[
  {
    "COMPOUND": "CC[C@@]1([C@@H]2O[C@@H]([C@H]3O[C@@](O)(CO)[C@H](C)C[C@@H]3C)C[C@@H]2C)CC[C@H]([C@]2(C)CC[C@]3(C[C@H](O)[C@@H](C)[C@@H]([C@@H](C)[C@@H](OC)[C@H](C)C(=O)O)O3)O2)O1",
    "EXPERIMENTAL VALUE": "123 % of control"
  },
  {
    "COMPOUND": "CNC1C(=O)NC2C(=O)NC(C(=O)NC3C(=O)NC4C(=O)NC(C(=O)NC(C(=O)O)c5cc(O)cc(OC6OC(CO)C(O)C(O)C6O)c5-c5cc4ccc5O)C(O)c4cc(Cl)c(c(Cl)c4)Oc4cc3cc(c4OC3OC(C(=O)O)C(O)C(O)C3NC(=O)CCCCCCCC(C)C)Oc3ccc(cc3Cl)C2O)c2cc(cc(O)c2Cl)Oc2cc1ccc2O (stereo not shown)",
    "EXPERIMENTAL VALUE": "123 % of control"
  },
  {
    "COMPOUND": "CNC1C(=O)NC2C(=O)NC(C(=O)NC3C(=O)NC4C(=O)NC(C(=O)NC(C(=O)O)c5cc(O)cc(OC6OC(CO)C(O)C(O)C6O)c5-c5cc4ccc5O)C(O)c4cc(Cl)c(c(Cl)c4)Oc4cc3cc(c4OC3OC(C(=O)O)C(O)C(O)C3NC(=O)CCCCCCCCC(C)C)Oc3ccc(cc3Cl)C2O)c2cc(cc(O)c2Cl)Oc2cc1ccc2O (stereo not shown)",
    "EXPERIMENTAL VALUE": "111 % of control"
  }
]

The record that follows has no IBU (isobutyrate) shown yet.
Return IBU (isobutyrate) for the following compound: CCCCCCCCCC(=O)NC1C(Oc2c3cc4cc2Oc2c(Cl)cc(cc2Cl)C(O)C2NC(=O)C(NC(=O)C4NC(=O)C4NC(=O)C(NC(=O)C(NC)c5ccc(O)c(c5)Oc5cc(O)c(Cl)c4c5)C(O)c4ccc(c(Cl)c4)O3)c3ccc(O)c(c3)-c3c(OC4OC(CO)C(O)C(O)C4O)cc(O)cc3C(C(=O)O)NC2=O)OC(C(=O)O)C(O)C1O (stereo not shown)
112 % of control

====

Assay: Pharmacokinetics in mice
Settings: mouse, serum
OBSERVABLE: Cmax (ng/mL)
Kindly provide the numeric value in ng/mL only, without the unit symbol.

Return Cmax for the following molecule: CN[C@H](CC(C)C)C(=O)N[C@H]1C(=O)N[C@@H](CC(N)=O)C(=O)N[C@H]2C(=O)N[C@H]3C(=O)N[C@H](C(=O)N[C@H](C(=O)O)c4cc(O)cc(O)c4-c4cc3ccc4O)[C@H](O)c3ccc(c(Cl)c3)Oc3cc2cc(c3O[C@@H]2O[C@H](CO)[C@@H](O)[C@H](O)[C@H]2O[C@H]2C[C@](C)(N)[C@H](O)[C@H](C)O2)Oc2ccc(cc2Cl)[C@H]1O
30000

====

Test system: rumen fermentation (strained rumen fluid)
Experiment: Rumen in vitro model
Design: species or system steer
Conditions: 50.00 ppm; 24 h
VAL: recorded values

Worked examples, 3 compounds total:
[
  {
    "COMPOUND": "CCCCCCCCCC(=O)NC1C(Oc2c3cc4cc2Oc2c(Cl)cc(cc2Cl)C(O)C2NC(=O)C(NC(=O)C4NC(=O)C4NC(=O)C(NC(=O)C(NC)c5ccc(O)c(c5)Oc5cc(O)c(Cl)c4c5)C(O)c4ccc(c(Cl)c4)O3)c3ccc(O)c(c3)-c3c(OC4OC(CO)C(O)C(O)C4O)cc(O)cc3C(C(=O)O)NC2=O)OC(C(=O)O)C(O)C1O (stereo not shown)",
    "VAL": "26 % of control"
  },
  {
    "COMPOUND": "CNC1C(=O)NC2C(=O)NC(C(=O)NC3C(=O)NC4C(=O)NC(C(=O)NC(C(=O)O)c5cc(O)cc(OC6OC(CO)C(O)C(O)C6O)c5-c5cc4ccc5O)C(O)c4cc(Cl)c(c(Cl)c4)Oc4cc3cc(c4OC3OC(C(=O)O)C(O)C(O)C3NC(=O)CCCCCCCC(C)C)Oc3ccc(cc3Cl)C2O)c2cc(cc(O)c2Cl)Oc2cc1ccc2O (stereo not shown)",
    "VAL": "28 % of control"
  },
  {
    "COMPOUND": "CC[C@@]1([C@@H]2O[C@@H]([C@H]3O[C@@](O)(CO)[C@H](C)C[C@@H]3C)C[C@@H]2C)CC[C@H]([C@]2(C)CC[C@]3(C[C@H](O)[C@@H](C)[C@@H]([C@@H](C)[C@@H](OC)[C@H](C)C(=O)O)O3)O2)O1",
    "VAL": "81 % of control"
  }
]

The record that follows has no VAL shown yet.
Return VAL for the following compound: CNC1C(=O)NC2C(=O)NC(C(=O)NC3C(=O)NC4C(=O)NC(C(=O)NC(C(=O)O)c5cc(O)cc(OC6OC(CO)C(O)C(O)C6O)c5-c5cc4ccc5O)C(O)c4cc(Cl)c(c(Cl)c4)Oc4cc3cc(c4OC3OC(C(=O)O)C(O)C(O)C3NC(=O)CCCCCCCCC(C)C)Oc3ccc(cc3Cl)C2O)c2cc(cc(O)c2Cl)Oc2cc1ccc2O (stereo not shown)
30 % of control
